test: First-in-human Phase 1 study (safety, PK) in relapsed or refractory CLL; type: in vivo; conditions: human, plasma, oral, 100 mg, human CLL, Week 1 Day-3 single dose, Subject 3, 100 mg

compound	Cmax / µg/mL
CC1(C)CCC(CN2CCN(c3ccc(C(=O)NS(=O)(=O)c4ccc(NCC5CCOCC5)c([N+](=O)[O-])c4)c(Oc4cnc5[nH]ccc5c4)c3)CC2)=C(c2ccc(Cl)cc2)C1 [Compound 5]	1.19

* * *

assay: First-in-human Phase 1 study (safety, PK) in relapsed or refractory CLL; assay type: in vivo; details: human, plasma, oral, 200 mg, human CLL, Week 1 Day-3 single dose, Subject 1, 200 mg; read-out: t1/2 (converted)
metric name: half-life (h)

compound	metric name	uom	measured value
CC1(C)CCC(CN2CCN(c3ccc(C(=O)NS(=O)(=O)c4ccc(NCC5CCOCC5)c([N+](=O)[O-])c4)c(Oc4cnc5[nH]ccc5c4)c3)CC2)=C(c2ccc(Cl)cc2)C1 [Compound 5]	half-life	h	30.6
